Hey, just so you know, these numbers are from PubChem BioAssay AID1963445.

tested on: MCF7 complex spheroid growth, % test/control; assay: Anticancer human tumor MCF7 cell line growth inhibition [Asc]; conditions: second compound 10 µM; first compound 1 µM; stronger effect = lower value;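 also: spheroids exposed to compounds for 7 days; 100% = DMSO vehicle control wells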
ATTRIBUTE_MEASURED: viability, T/C (%)
Note: unit % is implicit; provide only the numeric part.

{"COMPOUND": "COc1c(OCCCN2CCOCC2)ccc2c3n(c(=NC(=O)c4cnc(N)nc4)nc12)CCN3 + Cc1c(S(C)(=O)=O)c(-c2cc(F)cc(N3CCN(c4ccc(NS(=O)(=O)c5ccc(NC(CCN6CCC(C(=O)OCCCP(=O)(O)O)CC6)CSc6ccccc6)c(S(=O)(=O)C(F)(F)F)c5)cc4)CC3)c2)c(-c2ccc(Cl)cc2)n1C(C)C", "SYSTEM_TESTED": "MCF7 complex spheroid growth, % test/control", "U": "%", "viability, T/C": 11.9}
{"COMPOUND": "O=C(c1ccc(F)c(F)c1Nc1ccc(I)cc1F)N1CC(O)([C@@H]2CCCCN2)C1 + Cc1c(S(C)(=O)=O)c(-c2cc(F)cc(N3CCN(c4ccc(NS(=O)(=O)c5ccc(NC(CCN6CCC(C(=O)OCCCP(=O)(O)O)CC6)CSc6ccccc6)c(S(=O)(=O)C(F)(F)F)c5)cc4)CC3)c2)c(-c2ccc(Cl)cc2)n1C(C)C", "SYSTEM_TESTED": "MCF7 complex spheroid growth, % test/control", "U": "%", "viability, T/C": 90.8}

Request - read-out viability, T/C | tested on MCF7 complex spheroid growth, % test/control | compound CNC(C)C(=O)NC1CN(S(=O)(=O)c2cccc(S(=O)(=O)N3CCC4CCC(C(=O)NC(c5ccccc5)c5ccccc5)N4C(=O)C(NC(=O)C(C)NC)C3)c2)CCC2CCC(C(=O)NC(c3ccccc3)c3ccccc3)N2C1=O (stereo not drawn) + Cc1c(S(C)(=O)=O)c(-c2cc(F)cc(N3CCN(c4ccc(NS(=O)(=O)c5ccc(NC(CCN6CCC(C(=O)OCCCP(=O)(O)O)CC6)CSc6ccccc6)c(S(=O)(=O)C(F)(F)F)c5)cc4)CC3)c2)c(-c2ccc(Cl)cc2)n1C(C)C
24

State its viability, T/C on MCF7 complex spheroid growth, % test/control: C#Cc1c(F)ccc2cc(O)cc(-c3ncc4c(N5CC6CCC(C5)N6)nc(OCC56CCCN5CC(F)C6)nc4c3F)c12 (stereo not drawn) + Cc1c(S(C)(=O)=O)c(-c2cc(F)cc(N3CCN(c4ccc(NS(=O)(=O)c5ccc(NC(CCN6CCC(C(=O)OCCCP(=O)(O)O)CC6)CSc6ccccc6)c(S(=O)(=O)C(F)(F)F)c5)cc4)CC3)c2)c(-c2ccc(Cl)cc2)n1C(C)C
292

What viability, T/C appears in the records for this compound with MCF7 complex spheroid growth, % test/control? C=C(F)C(=O)N1CCN(c2nc(OCC3CCCN3C)nc3c2CCN(c2cccc4cccc(Cl)c24)C3)CC1CC#N (stereo not drawn) + Cc1c(S(C)(=O)=O)c(-c2cc(F)cc(N3CCN(c4ccc(NS(=O)(=O)c5ccc(NC(CCN6CCC(C(=O)OCCCP(=O)(O)O)CC6)CSc6ccccc6)c(S(=O)(=O)C(F)(F)F)c5)cc4)CC3)c2)c(-c2ccc(Cl)cc2)n1C(C)C
223

Given the entry CCN1CCN(Cc2ccc(Nc3ncc(F)c(-c4cc(F)c5nc(C)n(C(C)C)c5c4)n3)nc2)CC1 + Cc1c(S(C)(=O)=O)c(-c2cc(F)cc(N3CCN(c4ccc(NS(=O)(=O)c5ccc(NC(CCN6CCC(C(=O)OCCCP(=O)(O)O)CC6)CSc6ccccc6)c(S(=O)(=O)C(F)(F)F)c5)cc4)CC3)c2)c(-c2ccc(Cl)cc2)n1C(C)C , what viability, T/C was observed with MCF7 complex spheroid growth, % test/control?
61.6

API: value(readout=viability, T/C, system=MCF7 complex spheroid growth, % test/control) for record C=CC(=O)N1CCN(c2nc(=O)n(-c3c(C)ccnc3C(C)C)c3nc(-c4c(O)cccc4F)c(F)cc23)C(C)C1 (stereo not drawn) + Cc1c(S(C)(=O)=O)c(-c2cc(F)cc(N3CCN(c4ccc(NS(=O)(=O)c5ccc(NC(CCN6CCC(C(=O)OCCCP(=O)(O)O)CC6)CSc6ccccc6)c(S(=O)(=O)C(F)(F)F)c5)cc4)CC3)c2)c(-c2ccc(Cl)cc2)n1C(C)C
195

Reported viability, T/C for MCF7 complex spheroid growth, % test/control, given O=C(c1cc(Cc2n[nH]c(=O)c3ccccc23)ccc1F)N1CCN(C(=O)C2CC2)CC1 + Cc1c(S(C)(=O)=O)c(-c2cc(F)cc(N3CCN(c4ccc(NS(=O)(=O)c5ccc(NC(CCN6CCC(C(=O)OCCCP(=O)(O)O)CC6)CSc6ccccc6)c(S(=O)(=O)C(F)(F)F)c5)cc4)CC3)c2)c(-c2ccc(Cl)cc2)n1C(C)C ?
86.9
